molecular target: T1, recombinant human TLR4 protein (human, UniProt O00206 24-631); assay: SPR; Biacore T200; TLR4 immobilised on CM5 chip (6000 RU); HpGroES proteins flowed at 7.8125-1000 nM, 30 μl/min, 25 °C; PBS with 0.05% P20; Kd from saturation curves (GraphPad Prism); conditions: both partners purified
T1 construct: Toll-like receptor 4, human, recombinant protein from R&D Systems; R&D Systems' recombinant human TLR4 is, as far as recalled, the extracellular domain with a His tag (some products are a complex with MD-2); also called Toll-like receptor 4; source: bought: R&D Systems
T1 sequence (O00206 24-631): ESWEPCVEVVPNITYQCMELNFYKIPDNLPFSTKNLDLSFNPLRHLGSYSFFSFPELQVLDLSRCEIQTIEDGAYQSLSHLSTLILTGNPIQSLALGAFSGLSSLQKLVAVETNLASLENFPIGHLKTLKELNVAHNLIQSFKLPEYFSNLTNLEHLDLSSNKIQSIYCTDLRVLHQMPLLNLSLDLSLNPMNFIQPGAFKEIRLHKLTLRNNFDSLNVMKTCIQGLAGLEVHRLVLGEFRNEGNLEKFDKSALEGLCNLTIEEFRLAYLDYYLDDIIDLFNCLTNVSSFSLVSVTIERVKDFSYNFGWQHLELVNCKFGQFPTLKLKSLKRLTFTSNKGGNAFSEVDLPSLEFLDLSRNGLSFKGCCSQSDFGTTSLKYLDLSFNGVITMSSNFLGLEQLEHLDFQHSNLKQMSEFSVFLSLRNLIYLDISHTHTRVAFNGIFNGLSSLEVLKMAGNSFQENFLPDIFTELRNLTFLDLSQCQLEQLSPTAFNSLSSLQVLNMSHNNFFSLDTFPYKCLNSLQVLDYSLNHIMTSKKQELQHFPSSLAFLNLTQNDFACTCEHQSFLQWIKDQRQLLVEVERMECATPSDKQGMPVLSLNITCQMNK
readout-type: pKd
Numbers only, as −log10 of the molar value.

Query: What value of pKd has been reported for the following binder? HpGroES H104A mutant (natural protein, Helicobacter pylori, UniProt P0A0R3 1-118, looked up, GroES (HspA) of Helicobacter pylori with a point mutation in domain B; Same construct as m1 with the mutation; nickel-loaded during purification; source: E. coli M15 (pQE30), purified (Ni2+-chelating Sepharose, Superdex 200 size exclusion)) MKFQPLGERVLVERLEEENKTSSGIIIPDNAKEKPLMGVVKAVSHKISEGCKCVKEGDVIAFGKYKGAEIVLDGTEYMVLELEDILGIVGSGSCCHTGNHDHKAAKEHEACCHDHKKH
Result: 7.00

Please turn your attention to the following entry.
Query: What value of pKd has been reported for the following binder? Helicobacter pylori GroES (HpGroES), wild type (natural protein, GroES (HspA) of Helicobacter pylori; domain A plus C-terminal domain B (residues 91-118); Protein was dialysed with 4 molar equivalents of NiSO4 before size exclusion (nickel-loaded); also called WT; heat shock protein (HSP) A; source: E. coli M15 (pQE30), purified (Ni2+-chelating Sepharose, Superdex 200 size exclusion)) MKFQPLGERVLVERLEEENKTSSGIIIPDNAKEKPLMGVVKAVSHKISEGCKCVKEGDVIAFGKYKGAEIVLDGTEYMVLELEDILGIVGSGSCCHTGNHDHKHAKEHEACCHDHKKH
Result: 7.00
